Cut-off 1 on logD: below means yes, at or above means no.

Worked cases, answers included:
Cc1cc(CCCOc2c(C)cc(-c3noc(C(F)(F)F)n3)cc2C)on1 : no
N#Cc1cc2c(cc1NC(=O)c1cc(F)cc3[nH]ncc13)CNC2 : yes
O=C(Nc1cc2c(c(-c3c[nH]c(=O)c(F)c3)c1)CNC2)c1cc(F)cc2[nH]ncc12 : yes
O=C(O)Cn1ncc2cc(-c3cc(Cl)cc(NC(=O)OCc4ccccc4)c3)ccc21 : no
O=C(Nc1ccc2c(c1)CNC2)c1cc(Cl)cc2ccncc12 : yes
CC(C)[C@H](Nc1ncnc2[nH]c(-c3cnn(C)c3C#N)cc12)c1ccc2c(n1)NC(=O)CO2 (single isomer, unassigned) : no
OCC#C[C@H](Nc1ccc2c(c1)CNC2)c1cc(Cl)cc2[nH]ncc12 (racemic) : yes
O=C(Nc1ccc2c(c1)CNC2)c1cc(F)cc2c1CCC2 : no
CNC(=O)[C@H](Nc1cc(CN)cc(-c2nn[nH]n2)c1)c1cc(Cl)cc(C2CC2)c1 (racemic) : no
C=CC[C@H](Nc1cccc(-c2nn[nH]n2)c1)c1cc(Cl)cc(NC(=O)OCc2ccccc2)c1 (racemic) : no

I wonder whether CNC(=O)Cn1cc(-c2cc3c(N[C@H](c4ccc5c(c4)S(=O)(=O)CCC5)C(C)C)ncnc3[nH]2)cn1 (racemic) has logD below 1. Can you tell?
no

// next record COc1cc(Cc2c(-c3ccc(F)cc3)noc2C)nc(N2CCNCC2)n1
no

Next entry: CNC(=O)[C@H](Nc1cccc(-c2nn[nH]n2)c1)c1cc(Cl)cc2[nH]ncc12 (racemic)
yes

---

- experimental-parameters: mdck_mdr1
Consider the following compounds; for each one, report its Papp.
Please append the unit to your numeric answer.

CNCc1cc(-c2cc3c(N[C@H](c4ccc5c(c4)S(=O)(=O)CCC5)C(C)C)ncnc3[nH]2)co1 (racemic) : 1.61 ×10⁻⁶ cm/s
CNC(=O)Cn1cc(-c2cc3c(N[C@H](c4ccc5c(c4)OCCO5)C(C)C)ncnc3[nH]2)cn1 (racemic) : 1.94 ×10⁻⁶ cm/s
CC(C)n1cc2c(C(=O)Nc3ccc4c(c3)CNC4)cc(Cl)cc2n1 : 3.4 ×10⁻⁶ cm/s
O=C(O)Cn1ncc2cc(-c3cc(Cl)cc(NC(=O)OCc4ccccc4)c3)ccc21 : 5.12 ×10⁻⁶ cm/s
O=C(Nc1cc(Cl)cc([C@H]2CN(Cc3ccccc3)C[C@@H]2c2cccc(-c3nn[nH]n3)c2)c1)OCc1ccccc1 (racemic) : 0.2 ×10⁻⁶ cm/s

Consider now this further compound.
Could you tell me which Papp is on file for CC(C)NC(=O)[C@H](Nc1ccc2c(c1)CNC2)c1cc(Cl)cc2[nH]c(-c3ccccc3)nc12 (racemic) ?
0.432 ×10⁻⁶ cm/s

---

For each of the compounds below, state its microsomal CLint.
- experimental-parameters: human; liver_microsomes
One number for each entry, in µL/min/mg.

# count of solved cases: 4
CNCc1cc(-c2cc3c(N[C@H](c4ccc5c(c4)S(=O)(=O)CCC5)C(C)C)ncnc3[nH]2)co1 (racemic) : 57
CC(C)[C@H](Nc1ncnc2[nH]c(-c3cnn(C)c3C#N)cc12)c1ccc2c(c1)NC(=O)CO2 (racemic) : 100
CC(C)[C@H](Nc1ncnc2[nH]c(-c3cnn(C)c3C#N)cc12)c1ccc2c(c1)OCCO2 (racemic) : 74
NCc1cccc(NC(=O)C[C@H](NC(=O)OCc2ccccc2)c2ccc(OCc3ccccc3)cc2)c1 (racemic) : 17

Batch of 6 compounds: report microsomal CLint for each.
1. NCc1cccc(NC(=O)[C@H](NC(=O)OCc2ccccc2)C2CCCCC2)c1 (racemic)
2. O=C(/C=C/c1ccccc1)C(=O)N1CCN(CCc2ccccc2)CC1
3. CC(C)[C@H](Nc1ncnc2[nH]c(-c3cnn(C)c3)cc12)c1ccc2c(c1)S(=O)(=O)CCC2 (racemic)
4. CC(C)[C@H](Nc1ncnc2[nH]c(-c3cnn(C)c3C#N)cc12)c1ccc2c(c1)S(=O)(=O)CCC2 (racemic)
5. NCc1cccc(NC(=O)[C@@H](NC(=O)OCc2ccccc2)c2ccc(OCc3ccccc3)cc2)c1
6. CNC(=O)c1cc2c(N[C@H](c3ccc4c(c3)NC(=O)CO4)C(C)C)ncnc2[nH]1 (racemic)

5.29
167
141
490
11
52

// data source = the ASAP Discovery antiviral challenge data (2025)
